Tested on: M14
Test: NCI tumour cell line growth inhibition, 48 h
Calls of active or inactive are those of the source. No stated cut-off is given here; in the data, active = GI50 up to about 1.1 µM and inactive = higher.
Measured quantity: GI50

Lab note: need GI50 with M14 for entry Cc1cc2[nH]c3c(C#N)c(-c4ccccc4)c(/C=N/c4ccc(F)cc4)c(=O)n3c2cc1C , please look it up.
> 100 µM (inactive)

Reported GI50 for M14, given CC(C)=C[C@H]1C[C@H](C)[C@H]2CC[C@H](C)c3c2c1c(C)c1ncoc31 ?
15 µM (inactive)

Find the measured GI50: item CN1CC(=O)N2Cc3ccccc3-n3cccc3C2C1 (stereo not given) , target or system M14.
> 100 µM (inactive)

Could you now consider this next molecule?
Return GI50 measured with M14 given this molecule: O=C(O[C@H]1[C@@H]2C=CO[C@@H](OC3OC(CO)C(O)C(O)C3O)[C@@H]2[C@@]2(CO)O[C@@H]12)c1ccc(O)c(O)c1 (stereo not given in full)
> 100 µM (inactive)
